# TARGET OR TEST SYSTEM: human tankyrase 1 PARP catalytic domain, TNKS1P (GST-tagged) (Homo sapiens (Human))
# Sequence (O95271 1112-1317): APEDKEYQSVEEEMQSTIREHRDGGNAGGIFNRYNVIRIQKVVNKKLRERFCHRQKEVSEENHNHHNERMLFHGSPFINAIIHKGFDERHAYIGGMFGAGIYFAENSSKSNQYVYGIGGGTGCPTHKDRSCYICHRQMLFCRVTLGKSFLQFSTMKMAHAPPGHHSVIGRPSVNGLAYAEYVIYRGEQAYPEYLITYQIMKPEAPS
# maps each entry to its pIC50
Entry type: numeric. Quantity: pIC50, the -log10 of concentration in molar units.

1) COc1ccc(C(=O)C2CCN(C3CCCN(Cc4nc5c(c(=O)[nH]4)COCC5)C3=O)CC2)cc1 (stereo not drawn) [Example 18] : 7.34
2) COc1ccc(C(=O)C2CCN(C3CCN(Cc4nc(C)cc(=O)[nH]4)C3=O)CC2)cc1 (stereo not drawn) [Example 23] : 6.54
3) COc1ccc(C(=O)C2CCN([C@@H]3CCN(Cc4nc5ccccc(=O)c5[nH]4)C3=O)CC2)cc1C [Example 29] : 6.56
4) COc1ccc(C(=O)C2CCN([C@@H]3CCN(CC(=O)Nc4nnc5n4CCS5)C3=O)CC2)cc1 (single isomer, unassigned) [Example 34] : 7.42
5) COc1ccc(C(=O)C2CCN([C@H]3CCN(Cc4nc5c(c(=O)[nH]4)COCC5)C3=O)CC2)cc1C [Example 13] : 8.22
6) COc1ccc(C(=O)C2CCN([C@H]3CCN(CC(=O)Nc4nnc5n4CCS5)C3=O)CC2)cc1 [Example 33] : 6.08

Tell me its pIC50 on human tankyrase 1 PARP catalytic domain, TNKS1P (GST-tagged) (Homo sapiens (Human)): COc1ccc(C(=O)C2CCN(C3CCN(Cc4nc5sc(C)cc5c(=O)[nH]4)C3=O)CC2)cc1 (stereo not drawn) [Example 8]
7.02

// fetch pIC50 for COc1ccc(C(=O)C2CCN(C3CCN(CC(=O)Nc4noc5ncccc45)C3=O)CC2)cc1 (stereo not drawn) [Example 38] ; system: human tankyrase 1 PARP catalytic domain, TNKS1P (GST-tagged) (Homo sapiens (Human))
5.19

State, for human tankyrase 1 PARP catalytic domain, TNKS1P (GST-tagged) (Homo sapiens (Human)), measured pIC50 of the compound listed here: COc1ccc(C(=O)C2CCN([C@@H]3CCN(Cc4nc5c(c(=O)[nH]4)COCC5)C3=O)CC2)cc1C [Example 14]
6.15

====

# TARGET OR TEST SYSTEM: tankyrase 2 protein PARP domain, TNKS2P (GST-tagged) (Homo sapiens (Human))
# Sequence (Q9H2K2 959-1164): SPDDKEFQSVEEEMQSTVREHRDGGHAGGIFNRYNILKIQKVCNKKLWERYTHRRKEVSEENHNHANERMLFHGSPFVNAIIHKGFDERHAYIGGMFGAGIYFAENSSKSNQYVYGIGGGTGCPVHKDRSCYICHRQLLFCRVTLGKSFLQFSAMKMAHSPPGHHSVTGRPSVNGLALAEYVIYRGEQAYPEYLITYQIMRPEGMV
ASSAY METRIC: IC50 (nM)
State just the number; it will be interpreted in nM.

Complete the entry with IC50 for COc1ccc(C(=O)C2CCN([C@H]3CCN(Cc4nc5c(c(=O)[nH]4)COCC5)C3=O)CC2)cc1C [Example 13]
3

Provide only the value of recorded IC50 for COc1ccc(C(=O)C2CCN(C3CCN(CC(=O)Nc4nnnn4C)C3=O)CC2)cc1 (stereo not drawn) [Example 36]
1480

Provide IC50 value for the following compound: COc1ccc(C(=O)C2CCN(C3CCN(Cc4ccc(Cl)c(C#N)c4)C3=O)CC2)cc1 (stereo not drawn) [Example 5]
15

In one line, give reported IC50 of the entry COc1ccc(C(=O)C2CCN(C3CCN(Cc4nc5c(cnn5C)c(=O)[nH]4)C3=O)CC2)cc1 (stereo not drawn) [Example 6] .
25

Provide only the value of recorded IC50 for COc1ccc(C(=O)C2CCN([C@H]3CCN(Cc4nc5ccccc(=O)c5[nH]4)C3=O)CC2)cc1C [Example 28]
7

Please give measured IC50 of the following entry: O=C(c1ccc(F)cc1)C1CCN(C2CCN(Cc3nc4c(c(=O)[nH]3)COCC4)C2=O)CC1 (stereo not drawn) [Example 10]
6

Fill in IC50 for record COc1ccc(C(=O)C2CCN(C3CCN(Cc4ncc(C)c(=O)[nH]4)C3=O)CC2)cc1 (stereo not drawn) [Example 25]
36

====

Readings of pIC50 for the listed molecules
# Tested on: Non-small lung cancer ABC-1 cells
# METHOD DESCRIPTION: Cellular proliferation assay, ABC-1 cells (CellTiter-Glo)
# Format: cell-based
# EXPERIMENTAL CONTEXT: Homo sapiens, 72 h, 3 days of compound treatment
# Protocol: Non-small lung cancer ABC-1 cells were plated at 5000 cells per well in 96-well plates and treated with 8 serial compound dilutions starting from 10 μM as the highest concentration. Viable cells were measured after 3 days of compound treatment using the CellTiter-Glo assay (Promega, G7570). Assay was performed following the manufacture protocol.
Scale explanation: pIC50 corresponds to minus log10 of a concentration expressed in moles per litre.

1. COc1ccc(C(=O)C2CCN([C@@H]3CCN(Cc4nc5c(c(=O)[nH]4)COCC5)C3=O)CC2)cc1 [Example 4] : 5.99

For COc1ccc(C(=O)C2CCN([C@H]3CCN(Cc4nc5c(c(=O)[nH]4)COCC5)C3=O)CC2)cc1C [Example 13] , write its pIC50.
8.52

Output measured pIC50 for this item: COc1ccc(C(=O)C2CCN(C3CCN(Cc4ccc(Cl)c(C#N)c4)C3=O)CC2)cc1 (stereo not drawn) [Example 5]
6.81

====

Entries and their measured pIC50 follow.
# Test system: Wnt ligand-induced signaling
# METHOD DESCRIPTION: Wnt-responsive Super-TOpFlash (STF) luciferase reporter gene assay in HEK293 cells
# Assay type: cell-based
# EXPERIMENTAL CONTEXT: Homo sapiens, Wnt3A condition medium induced
In plain terms, pIC50 is the concentration in mol/L turned into minus its base-10 logarithm.

GET pIC50 | system: Wnt ligand-induced signaling | item: COc1ccc(C(=O)C2CCN(C3CCCN(Cc4nc5c(c(=O)[nH]4)COCC5)C3=O)CC2)cc1 (stereo not shown) [Example 18]
8.25

Given COc1ccc(C(=O)C2CCN([C@H]3CCN(Cc4nc5c(c(=O)[nH]4)COCC5)C3=O)CC2)cc1C [Example 13] , report its pIC50 on Wnt ligand-induced signaling.
8.92

Report measured pIC50 on Wnt ligand-induced signaling; entry: COc1ccc(C(=O)C2CCN(C3CCN(Cc4nc5ccccc(=O)c5[nH]4)C3=O)CC2)cc1 (stereo not shown) [Example 27]
9.40

====

# TARGET OR TEST SYSTEM: human tankyrase 1 PARP catalytic domain, TNKS1P (GST-tagged) (Homo sapiens (Human))
Values of IC50 strictly less than 1000 nM map to YES, and values of at least 1000 nM map to NO.

Strictly below 1000 nM: is that where IC50 of O=C(c1ccc(Cl)cc1)C1CCN(C2CCN(Cc3nc4c(c(=O)[nH]3)COCC4)C2=O)CC1 (centres unmarked) sits?
YES

Is IC50 of O=C(c1ccc(F)cc1)C1CCN([C@@H]2CCN(Cc3nc4c(c(=O)[nH]3)COCC4)C2=O)CC1 strictly below 1000 nM?
NO

Dear reviewer, please state whether COc1ccc(C(=O)C2CCN(C3CCN(CC(=O)Nc4nnc5ccccn45)C3=O)CC2)cc1 (centres unmarked) has IC50 strictly beneath 1000 nM.
NO

Does this compound meet the criterion IC50 < 1000 nM? COc1ccc(C(=O)C2CCN([C@@H]3CCN(Cc4nc5ccccc(=O)c5[nH]4)C3=O)CC2)cc1
NO

Could you please tell me whether IC50 recorded for COc1ccc(C(=O)C2CCN(C3CCN(Cc4nc5ccsc5c(=O)[nH]4)C3=O)CC2)cc1 (centres unmarked) is less than 1000 nM?
YES

Take the compound CCc1cc(=O)[nH]c(CN2CCC(N3CCC(C(=O)c4ccc(OC)cc4)CC3)C2=O)n1 (centres unmarked) and say whether its IC50 is less than 1000 nM.
YES

Below 1000 nM on IC50? Entry COc1ccc(C(=O)C2CCN(C3CCN(Cc4nc5c(c(=O)[nH]4)CCC5)C3=O)CC2)cc1 (centres unmarked)
YES

Please check: IC50 for COc1ccc(C(=O)C2CCN(C3CCN(CC(=O)Nc4nncc5c4CCCO5)C3=O)CC2)cc1 (centres unmarked) , strictly under 1000 nM or not?
NO

====

# Tested on: Axin2 protein
# METHOD DESCRIPTION: Cellular ELISA assay for stabilizing the Axin2 protein in SW480 cells
# Type: cell-based
# EXPERIMENTAL CONTEXT: Homo sapiens, 24 hrs treatment, read-out: Axin AC50
ASSAY METRIC: AC50 (nM)
Please state the figure in nM; there is no need to write the unit.

Guide cases for AC50, answers given:
1) COc1ccc(C(=O)C2CCN(C3CCN(Cc4ncc(C)c(=O)[nH]4)C3=O)CC2)cc1 (stereo not drawn) [Example 25] : 46
2) COc1ccc(C(=O)C2CCN(C3CCN(Cc4nc5ccsc5c(=O)[nH]4)C3=O)CC2)cc1 (stereo not drawn) [Example 7] : 451
3) COc1ccc(C(=O)C2CCN(C3CCN(Cc4nc5c(c(=O)[nH]4)CCC5)C3=O)CC2)cc1 (stereo not drawn) [Example 21] : 7
4) COc1ccc(C(=O)C2CCN(C3CCN(CC(=O)Nc4nnc5ccccn45)C3=O)CC2)cc1 (stereo not drawn) [Example 35] : 1890

Supply reported AC50 belonging to this molecule: COc1ccc(C(=O)C2CCN(C3CCN(Cc4nc(C)cc(=O)[nH]4)C3=O)CC2)cc1 (stereo not drawn) [Example 23]
227

Give the value of AC50 reported for the following: COc1ccc(C(=O)C2CCN(C3CCN(Cc4ccc(Cl)c(C#N)c4)C3=O)CC2)cc1 (stereo not drawn) [Example 5]
66

Return the recorded AC50 value; entry: COc1ccc(C(=O)C2CCN([C@H]3CCN(Cc4nc5c(c(=O)[nH]4)COCC5)C3=O)CC2)cc1C [Example 13]
2.1

Provide one value: measured AC50 of COc1ccc(C(=O)C2CCN([C@@H]3CCN(Cc4nc5ccccc(=O)c5[nH]4)C3=O)CC2)cc1 [Example 31]
89
